# Enzyme Activity Endpoint Assay: Fc values compiled below
# TESTED_ON: pooled human IgG (human IgG1, 2, 3 and 4)
Answer with a number only, understood to be in ng/µL.

The cases that follow already have their Enzyme Activity Endpoint Assay: Fc on record.
PROTEIN | PROPERTY_LABEL | REPORTED_RESULT
PRT-467 (protein) MITSVWTKGVTPPTDFIKGEDVFHAPYKAGQGWYDITKAFDGGDDLLCGAATAGNMLHWWFDQNKDQIERYLKEHPEKQKINFNGEQMFDVKEAIDTKDSQTNSELFNYFKEKAFPYLSTKHLGVFPDHVLDMFINGYRLSLTNHGPTPVKRQEKDPRGGIFDAVFGRGDQTKLLTSRHDLKNKTLNEISQLIKQELTEGKALGLSHTYANVRINHVINLWGADFDAEGNLEAIYVTDSDSNASIGMKKYFVGVNSAGKVAISAKEIKEDNIGAQVLGLFTLSTGQKIWNKTNLEHHHHHH | Enzyme Activity Endpoint Assay: Fc | 374
PRT-599 (protein) MANQEIRYSEETPSTITSVWTKGVTPPTDFIQNEDVLHAPYIANQGWYDITKTFNGKDDLLCGAATAGNMLHWWFDQNKEQIENYLKKHPEKQKINFNGEQMFDVKEAIDTKDSQTDSALFEYFKDKAFPYLSTKHLGVFPDHVIDMFINGYRLSLTNHGPTPVKRGTKDPRGGIFDAVFTRGDQSKLLTSRHDFKEKTLNEISDLIKQELTEGKALGLSHTYANVRINHVINLWGADFNAEGNLEAIYVTDSDSNASIGMKKYYVGVNSAGKVAISAKEIKGDNIGAQVLGLFTLSTGQDIWNQTNLEHHHHHH | Enzyme Activity Endpoint Assay: Fc | 310
PRT-437 (protein) MSQTEDSESLQRLRDIEDFQAEKKKQNVVYTKWLDGVDVKDHDFRKIVDGNEAYYATPLLNGRGFYDINKDFNRDSDKCAAAVAANMFHYWLDRNRDNVDRFLRQNPEKHGIIELPDGQLKLSDFLNTYESDDGYRDKSKLFDFISNNFNGPVWTDKLLDNYINGYAYNYKYGRTIEDPTKNTSKINFFKEVFNEKILTNNHSIRNQNEFSVLLSEALYTGKAIGLSYGPAGLRHSLGHIISVWGADLDADGNVVAIYVTDSDDKKLTIGDERVGLKRYKISTDDEGRLRLTAYEETHNTGGQIRGLWTLDTGKQAWADYFDKTEQTGTDQAEQ | Enzyme Activity Endpoint Assay: Fc | 306

Qu. Please look up its Enzyme Activity Endpoint Assay: Fc: PRT-600 (protein) MANQEIRYSEETPSTITSVWTKGVTPPTDFIQNEDVLHAPYIANQGWYDITKTFNGKDDLLCGAATAGNMLHWWFDQNKEQIENYLKKHPEKQKINFNGEQMFDVKEAIDTKDSQTDSALFEYFKDKAFPYLSTKHLGVFPDHVIDMFINGYRLSLTNHGPTPVKRGTKDPRGGIFDAVFTRGDQSKLLTSRHDFKEKTLNEISDLIKQELTEGKALGLSHTYANVRINHVINLWGADFNAEGNLEAIYVTDSDSNASIGMKKYYVGVNSAGKVAISAKEIEGDNIGAQVLGLFTLSTGQDSWNQTNLEHHHHHH
Ans. 441

Qu. Please look up its Enzyme Activity Endpoint Assay: Fc: PRT-415 (protein) MTITSVWTKGVTPPTPEDFRYNNEDVLHAPYVANQGWYDITKTFDGKDNLLCGAATAGNMLHWWFDQNKEEIERYLKKHPEKQKIIFNNQELFDVKAAIDTKDSQTNSKLFNYFLDKAFPNLSARQLGVMPDLVLDMFINGYYLNLGKTQSTDVNRPYQDKDKRGGIFDAVFTRGDQTTLLTARHDLKNKGLNEISDLIKQELTEGKALALSHTYANVRINHVINLWGADFDAEGNLIAIYVTDSDANASIGMKKYFVGVNANGKVAISAKKIEGDNIGAQVLGLFTLSTGQDIWQKLS
Ans. 225

Qu. Please look up its Enzyme Activity Endpoint Assay: Fc: PRT-272 (protein) MVTSVWTKGVTPPTDFIYGEDVLHAPYKAGQGWYDITKLFNGKDDLLCGAATAGNMLHWWFDQNKEQIENYLKKHPEKQKINFNGEQMFDVKEAIDTKDSQLDSKLFEYFLEKAFPYLSTKHLGVFPDHVIDMFINGYRLSLTNHGPTPVKRGSKDPRGGIFDAVFTRGDQSKLLTNRHDLKNKTLKEISDLIKQELTEGKALGISHTYANVRINHVINLWGADFDAEGNLEAIAVTDSDSNASIGMKKYFVGVNSSGKVAISAKEIEEDNIGAQVLGLFTLSTGQDIWNQTN
Ans. 389

Qu. Please look up its Enzyme Activity Endpoint Assay: Fc: PRT-574 (protein) MANQEIRYSEETPKTITSVWTKGVTPPTDFIYNEDVLHAPYIANQGWYDITKTFNGKDDLLCGAATAGNMLHWWFDQNKEQIERYLKKHPEKQKINFNGEQMFDVKEAIDTKDSQTNSKLFEYFKDKAFPYLSTKHLGVFPDHVIDMFINGYRLSLTNHGPTPVKEQTKDPRGGIFDAVFTRGDQSKLLTSRHDFKEKTLNEISDLIKQELTEGKALGLSHTYANVRINHVINLWGADFDAEGNLEAIYVTDSDSNASIGMKKYYVGVNSAGKVAISAKEIEGDNIGAQVLGLFTLSTGKDIWEQTNLEHHHHHH
Ans. 357

Qu. Please look up its Enzyme Activity Endpoint Assay: Fc: PRT-518 (protein) MVTSVWTKGVTPPTDFIKGEDVFHAPYKAGQGWYDITKTFNGKDNLLCGAATAGNMLHWWFDQNKEYIEAYLKKHPEKQKIIFNNQELFDLKAAINTKGSQKNSELFNYFRDKAFPNLSARRLGVFPDLVLDMFINGYYLNVTKTQTTDVNRTYQEKDKRGGIFDAVFTRGVQSKLLTSRHDFKEKGLKEISDLIKQELTEGKALGLSHTYANVRINHVINLWGADFDSDGNLKAIYVTDSDTNASIGMKKYFVGVNSAGKVAISAKEIKEDNIGAQVLGLFTLSTGQDIWNQTNLEHHHHHH
Ans. 423

This collection of values is drawn from patent US20250027068.
